System Under Test: TEAD3 (Homo sapiens)
Sequence (Q99594 whole entry): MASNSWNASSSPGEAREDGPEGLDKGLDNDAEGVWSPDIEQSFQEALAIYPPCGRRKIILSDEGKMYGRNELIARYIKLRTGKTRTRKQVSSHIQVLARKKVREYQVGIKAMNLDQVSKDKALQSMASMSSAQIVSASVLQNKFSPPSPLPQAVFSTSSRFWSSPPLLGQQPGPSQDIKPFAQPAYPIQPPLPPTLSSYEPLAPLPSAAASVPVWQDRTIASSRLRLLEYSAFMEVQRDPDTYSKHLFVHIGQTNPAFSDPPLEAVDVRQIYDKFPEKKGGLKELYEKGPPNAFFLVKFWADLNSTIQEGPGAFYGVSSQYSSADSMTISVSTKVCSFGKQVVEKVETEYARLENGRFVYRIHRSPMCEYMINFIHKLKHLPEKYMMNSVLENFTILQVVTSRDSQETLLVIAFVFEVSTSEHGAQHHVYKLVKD
Method Description: TEAD thermal shift assay (TSA)
Format: binding
Conditions: ratio of protein to compound 1:3
Property Measured: TEAD3 ΔTm (°C)
Give the value, in units of °C, as a plain number.

Example entries begin here.
Compound	System Under Test	TEAD3 ΔTm, °C
C[C@H](NC(=O)c1cnc2c(C3=CCC(C(F)(F)F)CC3)cccc2c1)c1ccccn1 (stereo partly drawn)	TEAD3 (Homo sapiens)	3
C[C@H](NC(=O)c1cnc2c(C3=CC[C@@H](C(F)(F)F)CC3)cccc2c1)c1ncco1 (single isomer, unassigned) [Compound 19]	TEAD3 (Homo sapiens)	4

Here is the next item to consider.
INPUT: GET /values?readout=TEAD3 ΔTm&item= C[C@H](CO)NC(=O)c1cnc2c(C3=CCC(C(F)(F)F)CC3)cccc2c1 (stereo partly drawn) [Compound 7]
OUTPUT: 2

====

System Under Test: UniProt Q99594
Method Description: TEAD thermal shift assay (TSA)
Assay type: binding
Conditions: ratio of protein to compound 1:1
Listing of recorded TEAD3 ΔTm by entry.
Give the value, in units of °C, as a plain number.

Example entries begin here.
Molecule	System Under Test	TEAD3 ΔTm (°C)
O=C(NCc1ccn[nH]1)c1cnc2c(C3=CCC(C(F)(F)F)CC3)cccc2c1 (centres unmarked) [Compound 47]	UniProt Q99594	2
C[C@H](CO)NC(=O)c1cnc2c(C3=CCC(C(F)(F)F)CC3)cccc2c1 (single isomer, unassigned) [Compound 81]	UniProt Q99594	4
O=C(NCc1ncco1)c1cnc2c(C3=CCC(C(F)(F)F)CC3)cccc2c1 (centres unmarked) [Compound 11]	UniProt Q99594	3.5
COc1cc(C2=CCC(C(F)(F)F)CC2)c2ncc(C(=O)N[C@H](C)CO)cc2c1 (some centres unmarked) [Compound 110]	UniProt Q99594	2
COC[C@H](CO)NC(=O)c1cnc2c(C3=CCC(C(F)(F)F)CC3)cccc2c1 (some centres unmarked) [Compound 62]	UniProt Q99594	1

INPUT: GET /values?readout=TEAD3 ΔTm&item= COc1cc(C2=CCC(C(F)(F)F)CC2)c2ncc(C(=O)N[C@H](C)c3ncco3)cc2c1 (some centres unmarked) [Compound 109]
OUTPUT: 2

INPUT: GET /values?readout=TEAD3 ΔTm&item= C[C@H](NC(=O)c1ccc2c(-c3ccc(C(F)(F)F)cc3)cccc2c1)c1cccc(N)n1 [Compound 1-4, reference compound]
OUTPUT: 5

INPUT: GET /values?readout=TEAD3 ΔTm&item= CNS(=O)(=O)c1ccc(Nc2ccc(C(F)(F)F)cc2)c(-c2cn(C)cn2)c1 [Compound 1-1, reference compound]
OUTPUT: 0

Where these numbers come from: patent US20250223306A1
